FYI, the data here is from PubChem BioAssay (NCI).

# Tested on: HCC-2998 colon
# methodDescription: NCI tumour cell line growth inhibition, 48 h
Let's look at some molecules and their measured TGI.

Sample records with TGI:
Prompt: Give recorded TGI. `CC1(C)CN=C(c2ccc3ccccc3c2O)N1`
Response: > 100 µM

Prompt: Specify TGI for `Cc1nc(Nc2ccc([N+](=O)[O-])cc2)sc1C(=O)/C=C/c1ccc(N(C)C)cc1` and stop.
Response: > 100 µM

Prompt: For the molecule CC(C)(CN1CCCCC1)C(=O)CC(SCCS(=O)(=O)O)c1ccc(Cl)c(Cl)c1 (stereo not given) , give its reported TGI.
Response: 26.2 µM

Prompt: Provide measured TGI value, entry: CC[N+]1(C)CCC(O)(/C=C/c2ccc(Cl)c(Cl)c2)C(C(=O)/C=C/c2ccc(Cl)c(Cl)c2)C1 (stereo not given)
Response: 3.96 µM

Prompt: Identify measured TGI corresponding to `Cc1ccc(C)c2sc3cc(=O)ccc-3nc12`
Response: > 100 µM

Others:
Prompt: State its TGI for this molecule: O=C(c1ccccc1)c1ccc2c(c1)N=C(c1ccc(Cl)c(Cl)c1)CC(c1ccc3ccccc3c1)N2 (stereo not given)
Response: > 100 µM

Prompt: Look up TGI of `O=c1[nH]nc(Cc2ccc([N+](=O)[O-])cc2)[nH]1` and report it.
Response: > 100 µM

Prompt: Hello, please tell me recorded TGI for this one: `O=[N+]([O-])c1ccc(-c2nc3ccccc3o2)cc1`
Response: > 100 µM

Prompt: Return reported TGI. Input molecule: S=C1OC2C3C4CC5C3C(O1)C1C5C4C21 (stereo not given)
Response: > 100 µM

Prompt: Tell me measured TGI for C[N+](C)(C)c1nc(N)nc2c1ncn2C1OC(CO)C(O)C1O (stereo not given) please.
Response: > 100 µM
